Reference for the values: patent US11053204B2

test system: foxtail, giant (giant foxtail, Setaria faberii); assay: Test C preemergence, plant response rating; format: in vivo; settings: Preemergence, 125 g ai/ha; scale of 0 to 100
EXPERIMENTAL_ENDPOINT: Plant response rating, Foxtail, Giant
Form field (numeric): enter value without unit.

Sample answers from the record:
INSERT INTO assay_data (molecule, experimental_endpoint, value) VALUES
  ('O=C(OCCC(F)(F)F)c1c(Br)cccc1Oc1ncc(Br)cn1 [Compound 33]', 'Plant response rating, Foxtail, Giant', 100),
  ('FC(F)(F)CCCc1c(Br)cccc1Oc1ncc(Cl)cn1 [Compound 89]', 'Plant response rating, Foxtail, Giant', 85),
  ('N#CC(CCCC(F)(F)F)c1ccccc1Oc1ncc(Cl)cn1 (centres unmarked) [Compound 144]', 'Plant response rating, Foxtail, Giant', 100);

Quick one: Plant response rating, Foxtail, Giant of N#Cc1cccc(Oc2ncc(Cl)cn2)c1COCCC(F)(F)F [Compound 80] ?
100

Please report the recorded Plant response rating, Foxtail, Giant for C=C(Br)COC(=O)c1c(Br)cccc1Oc1ncc(Cl)cn1 [Compound 61] .
65
